Tested on: MCF7 breast
experimental.details: NCI tumour cell line growth inhibition, 48 h
Here the recorded TGI is given for each entry.

compound: COc1ccccc1CNCCCN1C(=O)c2ccc3c4c(ccc(c24)C1=O)C(=O)N(CCCCNCCCN)C3=O
cmp: =
TGI [µM]: 1.35
--
compound: COc1cc(-c2nc(-c3nc4ccccc4[nH]3)cc3c2[nH]c2ccccc23)cc(OC)c1OC
cmp: >
TGI [µM]: 100
--
compound: O=C1CC(c2cccc(Br)c2)n2cccc21 (stereo not given)
cmp: >
TGI [µM]: 100
--
compound: O=C(O)Cc1ccc2[nH]c(O)c(C3=Nc4ccccc4C3=O)c2c1
cmp: =
TGI [µM]: 36.1
--
compound: Cc1ccc2nc(-c3ccc(N4C(=O)C(Cl)C4c4ccc(Cl)cc4)cc3)sc2c1 (stereo not given)
cmp: =
TGI [µM]: 32.7
--
compound: CC(C)=CCC/C(C)=C/CC/C(C)=C/CC/C(=C/CC/C(C)=C\CC/C(C)=C/CC/C(C)=C/CC/C(C)=C/Cc1cc(O)ccc1O)CO
cmp: =
TGI [µM]: 15.2
--
compound: COc1ccc2c(c1)CC[C@H](O)/C2=C/c1cc(OC)c(OC)c(OC)c1
cmp: >
TGI [µM]: 100
--
compound: COc1ccc2nc3cc([N+](=O)[O-])ccc3c(NCCCN(C)C)c2c1
cmp: =
TGI [µM]: 0.204
--
compound: CCC(CNc1cc(OC)cc2cccnc12)NC1CCCCC1 (stereo not given)
cmp: >
TGI [µM]: 100
--
compound: C=C(Nc1ccc([N+](=O)[O-])cc1[N+](=O)[O-])c1c/c(=N\NC(N)=S)c2ccccc2o1
cmp: >
TGI [µM]: 100

====

Here the recorded TGI is given for each entry.
Tested on: T-47D breast
experimental.details: NCI tumour cell line growth inhibition, 48 h

molecule: COc1ccc(OC)c(-c2cc(-c3ccc(Cl)cc3)nn2-c2ccc(S(=O)(=O)NC(C)=O)cc2)c1
TGI: 36.1 µM
//
molecule: O=c1c(=O)c2c(Br)sc(Br)c2c1=O
TGI: 47.8 µM
//
molecule: CC(=O)N=C1N(/C=C2\C(=O)Oc3ccccc3C2=O)C(=O)/C(=C/c2ccc(NC(C)=O)cc2)N1C
TGI: > 100 µM
//
molecule: CCOC(=O)/C(C#N)=C/c1ccnc2ccccc12
TGI: > 100 µM
//
molecule: CC/C=C(\C(=C/CC)[N+](=O)[O-])[N+](=O)[O-]
TGI: 55.6 µM
//
molecule: COC(=O)c1cnc(Cl)cn1
TGI: > 100 µM
//
molecule: FC1C2=C(SC1(F)F)C1CCC2C1 (centres undefined)
TGI: > 100 µM
//
molecule: CC1=Nc2sc3c(c2C2=NCCN12)CCCC3
TGI: 88 µM
//
molecule: Cc1noc(NC2=CC(=O)C(=O)c3ccccc32)c1C
TGI: > 100 µM
//
molecule: COc1cc2cc(C(=O)N3CC(CCl)c4c3cc(N)c3ccccc43)[nH]c2c(OC)c1OC (centres undefined)
TGI: > 100 µM
//
molecule: O=C1c2cc(Cl)ccc2NC(=NCCCl)C2CSCN12 (centres undefined)
TGI: > 100 µM
//
molecule: CC1(C)C2CC(=O)C1(C)C(OCc1ccccc1)C2 (centres undefined)
TGI: > 100 µM
//
molecule: NC1=CN2c3ccccc3N(CC(=O)O)C2C=C1 (centres undefined)
TGI: > 100 µM
//
molecule: COc1ccccc1CNCCCN1C(=O)c2ccc3c4c(ccc(c24)C1=O)C(=O)N(CCCCNCCCN)C3=O
TGI: 3.65 µM
//
molecule: Clc1ccc(C2Nc3ccccc3C3=NCCN32)cc1 (centres undefined)
TGI: 46.9 µM
//
molecule: CN(C)CCCn1nc(N)c2nc3cc(Cl)ccc3nc21
TGI: > 100 µM
//
molecule: COc1ccc(C2SCC(=O)N2NC(=O)c2ccc(NC(C)=O)cc2)cc1 (centres undefined)
TGI: > 100 µM
//
molecule: COc1nc(N)nc2c1ncn2C1OC(CO)C(O)C1O (centres undefined)
TGI: > 5000 µM
//
molecule: Nc1ccn(C2OC(COC(=O)C34CC5CC(CC(C5)C3)C4)C(O)C2O)c(=O)n1 (centres undefined)
TGI: > 100 µM
//
molecule: Cc1nc(N2CCC3(CC2)CO[C@@H](C)[C@H]3N)c(CO)nc1Sc1ccnc(N)c1Cl
TGI: > 100 µM
//
molecule: C=C1C(=O)O[C@H]2[C@@H](O)[C@H](C)CCC[C@]3(C)O[C@H]3CC[C@@]3(C)O[C@@H]3C[C@@H]12
TGI: 19.9 µM
//
molecule: CCN(CC)CCNC(=O)c1cn2c(ccc3sc4ccccc4c(=O)c32)n1
TGI: 30 µM
//
molecule: O=C1OC(=O)c2cc(S(=O)(=O)c3ccc4c(c3)C(=O)OC4=O)ccc21
TGI: > 100 µM
//
molecule: NC(=O)c1cccc(Nc2nccc(Nc3cccc4[nH]ncc34)n2)c1
TGI: > 17.9 µM
//
molecule: OCC(O)c1nc2ccc3[nH]ncc3c2c2c1CCCC2 (centres undefined)
TGI: > 50 µM
//
molecule: CC1=C(C(=O)c2ccccc2)C23C(=O)N(c4ccccc4)C(=O)C2=C(O)C=CC3(O)N1 (centres undefined)
TGI: > 100 µM
//
molecule: O=C(Cc1ccccc1)Nn1c(-c2ccccc2)nc2ccccc2c1=O
TGI: > 100 µM
//
molecule: O=C(Nc1ccc(-n2ccc3c(NC(=O)c4ccccc4)ncnc32)cc1)Nc1cccc(Cl)c1Cl
TGI: 9.22 µM
//
molecule: CC1=NN(c2nc(N)nc(CC#N)n2)C(C)(C)C1
TGI: > 100 µM
